NUDT7 reference
biological target: NUDT7 (Homo sapiens); construct: residues 14-235, E. coli, pNIC28-Bsa4, N-terminal His6 tag removed by TEV, construct 26672 Da; parameters: Intact protein LC/MS covalent labelling, fragments in pools of five, 200 uM each, 4 °C; conditions: 24 h, 4 °C, pool of five; 200 µM; covalent
Sequence (P0C024 14-235): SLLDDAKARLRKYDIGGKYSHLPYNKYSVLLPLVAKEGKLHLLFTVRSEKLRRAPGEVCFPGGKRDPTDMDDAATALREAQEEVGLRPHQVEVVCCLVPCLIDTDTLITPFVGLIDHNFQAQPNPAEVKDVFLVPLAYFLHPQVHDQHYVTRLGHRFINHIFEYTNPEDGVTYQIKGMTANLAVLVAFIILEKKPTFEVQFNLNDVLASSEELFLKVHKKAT
Readout label: NUDT7

[[record]]
entry_smiles = "O=C(CCl)NC(=O)c1ccco1"
readout_label = "NUDT7"
assay_value = 0

[[record]]
entry_smiles = "Cc1nc(C2(NC(=O)CCl)CCCCCC2)no1"
readout_label = "NUDT7"
assay_value = 0

[[record]]
entry_smiles = "CC(=O)Nc1ccc(NC(=O)CCl)c(C(F)(F)F)c1"
readout_label = "NUDT7"
assay_value = 0

[[record]]
entry_smiles = "COc1ccc(NC(=O)NC(=O)CCl)cc1"
readout_label = "NUDT7"
assay_value = 0

[[record]]
entry_smiles = "Cc1ccc(NC(=O)NC(=O)CCl)cc1"
readout_label = "NUDT7"
assay_value = 0.11

[[record]]
entry_smiles = "O=C(CCl)Nc1ccccc1Br"
readout_label = "NUDT7"
assay_value = 0.15


The reported numbers originate from paper PMC6556873.
